SYSTEM: rat PGT (Rattus norvegicus (Rat), UniProt Q00910)
MEASUREMENT_PROTOCOL: [3H]PGE2 uptake inhibition in MDCK cells stably transfected with rat PGT (percent inhibition and IC50)
Type: cell-based
EXPERIMENTAL_SETUP: 5 μM compound; inhibition of [3H]PGE2 uptake
PROPERTY_NAME: Inh (% of Ctl) 5 μM

Check out these entries, answers already filled in.
COMPOUND	Inh (% of Ctl) 5 μM
O=C(NCCOCCOCCNc1nc(Nc2ccc(O)cc2)nc(Nc2ccc(C(=O)NCc3ccccc3)cc2)n1)c1ccccc1 [compound 22]	88.1 % of Ctl
O=C(NCCOCCOCCNc1nc(Nc2ccc(O)cc2)nc(Nc2ccc(C(=O)NCc3cccc4ccccc34)cc2)n1)c1ccccc1	86.0 % of Ctl
CN(C)c1nc(NCCOCCOCCNC(=O)c2ccccc2)nc(Nc2ccc(O)cc2)n1	18.8 % of Ctl

Please look at the following compound next.
Recorded Inh (% of Ctl) 5 μM for O=C(NCCO)c1ccc(Nc2nc(NCCOCCOCCNC(=O)c3ccccc3)nc(Nc3ccc(O)cc3)n2)cc1 with rat PGT (Rattus norvegicus (Rat), UniProt Q00910), please?
68.2 % of Ctl

---

Quick reference: Inh (% of Ctl) 0.5 μM of the listed items.
SYSTEM: rat PGT (Rattus norvegicus (Rat))
MEASUREMENT_PROTOCOL: [3H]PGE2 uptake inhibition in MDCK cells stably transfected with rat PGT (percent inhibition and IC50)
Type: cell-based
EXPERIMENTAL_SETUP: 0.5 μM compound; inhibition of [3H]PGE2 uptake

Check out these entries, answers already filled in.
STRUCTURE_NOTATION	RESULT
O=C(NCCOCCOCCNc1nc(Nc2ccc(O)cc2)nc(Nc2ccc(C(=O)NCc3cccc4ccccc34)cc2)n1)c1ccccc1	33.8 % of Ctl
O=C(NCCOCCOCCNc1nc(Nc2ccc(O)cc2)nc(Nc2ccc(C(=O)NCc3ccc(-c4ccccc4)cc3)cc2)n1)c1ccccc1	24.6 % of Ctl

Please look at the following compound next.
Fill in the blank: the reported Inh (% of Ctl) 0.5 μM of O=C(NCCOCCOCCNc1nc(Nc2ccccc2)nc(Nc2ccc(C(=O)NCc3ccccc3)cc2)n1)c1ccccc1 is ____.
59.4 % of Ctl

---

SYSTEM: UniProtKB Q00910
MEASUREMENT_PROTOCOL: [3H]PGE2 uptake inhibition in MDCK cells stably transfected with rat PGT (percent inhibition and IC50)
Format: cell-based
EXPERIMENTAL_SETUP: 0.5 μM compound; inhibition of [3H]PGE2 uptake
PROPERTY_NAME: Inh (% of Ctl) 0.5 μM

Check out these entries, answers already filled in.
MOLECULE	RESULT
O=C(NCc1ccc(F)cc1)c1ccc(Nc2nc(Nc3ccc(O)cc3)nc(Nc3ccc(O)cc3)n2)cc1	3.1 % of Ctl
O=C(NCCOCCNc1nc(Nc2ccc(O)cc2)nc(Nc2ccc(C(=O)NCc3ccccc3)cc2)n1)Nc1ccccc1	30.7 % of Ctl
O=C(NCCOCCOCCNc1nc(Nc2ccc(C(=O)NCc3ccc(F)cc3)cc2)nc(Nc2ccc3[nH]cnc3c2)n1)c1ccccc1	20.1 % of Ctl
O=C(NCCOCCOCCNc1nc(Nc2ccc(O)cc2)nc(Nc2ccc(C(=O)NCc3ccc(Cl)cc3Cl)cc2)n1)c1ccccc1	56.4 % of Ctl

Fill in the blank: the reported Inh (% of Ctl) 0.5 μM of Cc1ccc(CNC(=O)c2ccc(Nc3nc(NCCOCCOCCNC(=O)c4ccccc4)nc(Nc4ccc(O)cc4)n3)cc2)cc1 is ____.
41.9 % of Ctl

Check O=C(NCCOCCOCCNc1nc(Nc2ccc(O)cc2)nc(Nc2ccc(C(=O)NCc3ccc(F)c(F)c3)cc2)n1)c1ccccc1 too.
45.1 % of Ctl

Check O=C(NCCOCCOCCNc1nc(Nc2ccc(O)cc2)nc(Nc2ccc(C(=O)N[C@@H](C(=O)O)c3ccccc3)cc2)n1)c1ccccc1 too.
5.4 % of Ctl

Where do these numbers come from? They come from patent US8952150B2.
